In this section we review reported viability, T/C values for a set of compounds.
- Test system: KRAS PDC multicell spheroid viability
- experimental details: Anticancer human tumor 825966-067-R-J1-PDC patient-derived colon carcinoma cell line growth inhibition [KRAS2]
- experimental context: second compound 3.16 µM; first compound 10 µM; stronger effect = lower value
Quick reminder: number only, in %, skip the unit.

Please review the following examples before continuing.
Cn1nccc1Nc1nccc(-c2cc3c(s2)C(C)(C)N(CCN2CCOCC2)C3=O)n1 + C=CC(=O)N1CCN(c2nc(=O)n(-c3c(C)ccnc3C(C)C)c3nc(-c4c(O)cccc4F)c(F)cc23)C(C)C1	67
CC(C)NCC(C(=O)N1CCN(c2ncnc3c2C(C)CC3O)CC1)c1ccc(Cl)cc1 (centres undefined) + CC1OCC2(CCN(c3cnc(Sc4ccnc(N)c4Cl)c(N)n3)CC2)C1N	5.28
COc1cc(Nc2ncc3c(n2)-c2ccc(Cl)cc2C(c2c(F)cccc2OC)=NC3)ccc1C(=O)O + CC1OCC2(CCN(c3cnc(Sc4ccnc(N)c4Cl)c(N)n3)CC2)C1N	123

Next, consider the following compound.
KRAS PDC multicell spheroid viability assay, compound Cn1nccc1Nc1nccc(-c2cc3c(s2)C(C)(C)N(CCN2CCOCC2)C3=O)n1 + C=CC(=O)N1CCN(c2nc(OCC3CCCN3C)nc3c2CCN(c2cccc4cccc(C)c24)C3)CC1CC#N , recorded viability, T/C = 57.8

----------
// reported viability, T/C per item
- Test system: KRAS PDC multicell spheroid viability
- experimental details: Anticancer human tumor 825966-067-R-J1-PDC cell line growth inhibition [KRAS2];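 also: spheroids exposed to compounds for 7 days; 100% = DMSO vehicle control viability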
- experimental context: compound 0.316 µM; stronger effect = lower value

Examples with answers:
CC(=O)OC12COC1CC(O)C1(C)C(=O)C(O)C3=C(C)C(OC(=O)C(O)C(NC(=O)OC(C)(C)C)c4ccccc4)CC(O)(C(OC(=O)c4ccccc4)C21)C3(C)C (centres undefined)	23.7% [middle of 5 runs]
COc1cc2nccc(Oc3ccc(NC(=O)C4(C(=O)Nc5ccc(F)cc5)CC4)cc3)c2cc1OC	86.7% [middle of 5 runs]
CCN1CCN(Cc2ccc(Nc3ncc(F)c(-c4cc(F)c5nc(C)n(C(C)C)c5c4)n3)nc2)CC1	117% [middle of 5 runs]

Below: the item to evaluate.
# viability, T/C measured on KRAS PDC multicell spheroid viability for item COC(=O)c1ccc2c(C(=Nc3ccc(N(C)C(=O)CN4CCN(C)CC4)cc3)c3ccccc3)c(O)[nH]c2c1 = 92.2% [middle of 5 runs]

----------
- System: KRAS PDC multicell spheroid viability
- experimental details: Anticancer human tumor 825966-067-R-J1-PDC cell line growth inhibition [KRAS2];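 also: spheroids exposed to compounds for 7 days; 100% = DMSO vehicle control viability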
- experimental context: second compound 10 µM; first compound 0.01 µM; stronger effect = lower value
# strict inequality: viability, T/C < 30% yields Criterion met, everything else yields Criterion not met

Example entries and their recorded answers appear below.
CC(=O)OC12COC1CC(O)C1(C)C(=O)C(O)C3=C(C)C(OC(=O)C(O)C(NC(=O)OC(C)(C)C)c4ccccc4)CC(O)(C(OC(=O)c4ccccc4)C21)C3(C)C (stereo not given) + CNCc1ccccc1-c1csc(C(C)Nc2nc(C)nc3cc(OC)c(OC)cc23)c1	Criterion met
CC(=O)Nc1cccc(-n2c(=O)n(C3CC3)c(=O)c3c(Nc4ccc(I)cc4F)n(C)c(=O)c(C)c32)c1 + CNCc1ccccc1-c1csc(C(C)Nc2nc(C)nc3cc(OC)c(OC)cc23)c1	Criterion met
Cn1ncnc1[C@H]1c2n[nH]c(=O)c3cc(F)cc(c23)N[C@@H]1c1ccc(F)cc1 + CC1OCC2(CCN(c3cnc(Sc4ccnc(N)c4Cl)c(N)n3)CC2)C1N	Criterion not met

(Q) Check if viability, T/C falls below 30% for CC(=O)Nc1cccc(-n2c(=O)n(C3CC3)c(=O)c3c(Nc4ccc(I)cc4F)n(C)c(=O)c(C)c32)c1 + C=CC(=O)N1CCN(c2nc(=O)n(-c3c(C)ccnc3C(C)C)c3nc(-c4c(O)cccc4F)c(F)cc23)C(C)C1 .
(A) Criterion not met
